Test system: HER2 (A775_G776insYVMA) expressing Ba/F3 stable cell line (Homo sapiens, UniProt P04626, DUP772-775, cells depend on it)
Sequence (P04626 with tags, fused parts or gaps DUP772-775): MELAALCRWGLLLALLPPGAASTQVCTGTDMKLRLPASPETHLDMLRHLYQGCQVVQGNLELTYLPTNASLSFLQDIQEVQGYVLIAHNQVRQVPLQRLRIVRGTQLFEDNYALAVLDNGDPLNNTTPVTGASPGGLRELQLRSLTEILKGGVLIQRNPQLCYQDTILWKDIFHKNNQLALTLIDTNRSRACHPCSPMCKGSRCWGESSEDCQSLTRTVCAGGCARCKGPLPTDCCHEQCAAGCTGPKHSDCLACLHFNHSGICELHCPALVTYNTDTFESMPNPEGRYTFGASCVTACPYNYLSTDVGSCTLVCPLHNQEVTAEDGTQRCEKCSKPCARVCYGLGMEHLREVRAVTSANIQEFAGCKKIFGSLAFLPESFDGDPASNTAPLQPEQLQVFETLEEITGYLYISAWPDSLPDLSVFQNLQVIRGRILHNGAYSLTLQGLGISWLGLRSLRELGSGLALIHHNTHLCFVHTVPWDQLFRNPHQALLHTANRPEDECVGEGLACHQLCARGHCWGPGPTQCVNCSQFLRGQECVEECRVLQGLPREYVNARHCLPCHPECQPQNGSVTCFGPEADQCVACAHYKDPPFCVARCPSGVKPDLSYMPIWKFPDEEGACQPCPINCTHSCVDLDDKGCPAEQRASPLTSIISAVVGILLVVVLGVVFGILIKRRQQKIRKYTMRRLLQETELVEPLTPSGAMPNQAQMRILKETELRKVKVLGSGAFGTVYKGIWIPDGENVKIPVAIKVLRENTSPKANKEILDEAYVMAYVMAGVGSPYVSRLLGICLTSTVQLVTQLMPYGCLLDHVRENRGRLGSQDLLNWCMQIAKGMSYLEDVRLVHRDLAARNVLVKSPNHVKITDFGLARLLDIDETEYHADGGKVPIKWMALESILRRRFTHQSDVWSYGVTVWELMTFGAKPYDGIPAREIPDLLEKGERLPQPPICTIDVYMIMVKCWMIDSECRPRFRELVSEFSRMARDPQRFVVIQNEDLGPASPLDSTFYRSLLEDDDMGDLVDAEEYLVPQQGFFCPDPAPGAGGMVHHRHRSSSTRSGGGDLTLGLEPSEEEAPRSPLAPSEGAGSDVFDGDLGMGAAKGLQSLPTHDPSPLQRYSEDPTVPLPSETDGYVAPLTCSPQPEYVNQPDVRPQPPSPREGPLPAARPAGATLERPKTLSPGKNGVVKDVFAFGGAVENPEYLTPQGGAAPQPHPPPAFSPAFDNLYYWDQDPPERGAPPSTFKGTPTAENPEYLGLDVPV
Test method notes: Cellular proliferation (Alamar Blue) assay, HER2 YVMA Ba/F3
Assay type: cell-based
Protocol conditions: HER2 A775_G776insYVMA Ba/F3, 72 hr, read-out: YVMA IC50
Assay metric: GI50 (µM)
Give the value in µM but do not write µM after it.

## Task Quick one: GI50 for C=CC(=O)Nc1cccc(N2C(=O)N(c3ccccc3)Cc3cnc(Nc4cn(C)nc4Cl)nc32)c1 [Compound 116] ?
## Result 0.024

## Task What would you report for Cn1cc(Nc2ncc3c(n2)N(c2cccc(NC(=O)/C=C/CN4CCOCC4)c2)C(=O)N(c2ccccc2)C3)c(Cl)n1 [Compound 122] ?
## Result 0.132

## Task Input CC#CC(=O)Nc1cccc(N2C(=O)N(c3ccccc3)Cc3cnc(Nc4cn(C)nc4Cl)nc32)c1 [Compound 125]
## Result 0.445

These entries and their values trace back to patent US20230027026A1.
